These entries and their values trace back to the supplement of paper PMC10724198.

system: Saccharomyces cerevisiae; experiment: protein stability index of tFT-peptide fusion (C-terminal peptide) (PSI (0-1 scale)); higher = more stable (slower turnover); conditions: genetic background: wild type; temperature: 30 C
Binary call on protein stability index: 1 from 0.7 upward, -1 beneath that.

Some entries whose results are on file:
RDASLLFHFFVC; -1
TKSQGGLTWASC; -1
GPPPAPPPLDAL; 1

Please check the record SALRGTDMREEV and state if its protein stability index is at or above 0.7.
-1

Please check the record IVRTMLKLFVDV and state if its protein stability index is at or above 0.7.
-1

----------
test system: Saccharomyces cerevisiae; assay: protein stability index of tFT-peptide fusion in deletion strain of DOA10 (PSI (0-1 scale)); higher = more stable (slower turnover)
List of protein stability index values.

Worked cases, answers included:
AITLPMCPLLHR; 0.716
AQTLPMCPLLLR; 0.686
RSLRVLLPLYFRP; 0.638
RSLRVLLPLIFR; 0.671
CLVSLKILLFFR; 0.282

Given CLVSMPILLFFR , respond with its protein stability index.
0.601

Given GLYMCSVGCWLR , respond with its protein stability index.
0.537

Given CLVSLPICLFFR , respond with its protein stability index.
0.593

Given GLYMCSRGCWFR , respond with its protein stability index.
0.677

Given AIELPMCPLLLR , respond with its protein stability index.
0.677

Given CVTRLDAIYFRI , respond with its protein stability index.
0.71

----------
system: Saccharomyces cerevisiae; experiment: protein stability index of tFT-peptide fusion (C-terminal peptide) (PSI (0-1 scale)); higher = more stable (slower turnover); details: genetic background: cdc53-1; temperature: 37 C
List of protein stability index values.
Respond using a number only.

GGGGMGRRVGVG; 0.418
FCSPFFFFLFRL; 0.241
GVYFIGISRCVC; 0.642
LSRRFSLALFWT; 0.683
FLPLLFFFFFRF; 0.292
QHRAIKIEIKIN; 0.666
VTRLLLSRIDCY; 0.445
ILLICLQFFNLF; 0.544

Given GWRGVVLVFVLV , respond with its protein stability index.
0.46

----------
system: Saccharomyces cerevisiae; experiment: protein stability index of tFT-peptide fusion (C-terminal peptide) (PSI (0-1 scale)); higher = more stable (slower turnover); settings: genetic background: wild type; temperature: 30 C
value_kind: protein stability index
Respond using a number only.

Worked cases, answers included:
PHARHPPDHRPF; 0.678
LPLIISTNYTPD; 0.723

Supply protein stability index measured with Saccharomyces cerevisiae for HSTPDSAAQEPG .
0.673

Supply protein stability index measured with Saccharomyces cerevisiae for SPPPAPVPAPPR .
0.678

Supply protein stability index measured with Saccharomyces cerevisiae for VGCWATGVGGPS .
0.706

Supply protein stability index measured with Saccharomyces cerevisiae for VRRRKLAKCEVN .
0.474

Supply protein stability index measured with Saccharomyces cerevisiae for FKPKAGCSNFAK .
0.696

Supply protein stability index measured with Saccharomyces cerevisiae for LTVIRSRDVIGP .
0.641

Supply protein stability index measured with Saccharomyces cerevisiae for SEVPCENSRRVV .
0.667

Supply protein stability index measured with Saccharomyces cerevisiae for PDYPLSCLLFFP .
0.643

Supply protein stability index measured with Saccharomyces cerevisiae for PHPLLPGRSSPP .
0.677

Supply protein stability index measured with Saccharomyces cerevisiae for VPPRPPLPPRPP .
0.625

Supply protein stability index measured with Saccharomyces cerevisiae for LRSRVGYVMPVR .
0.599

Supply protein stability index measured with Saccharomyces cerevisiae for KGKRKETKKTKG .
0.667

Supply protein stability index measured with Saccharomyces cerevisiae for SPDLTRPPLPPP .
0.693

Supply protein stability index measured with Saccharomyces cerevisiae for VLDFRGELGLLG .
0.699

Supply protein stability index measured with Saccharomyces cerevisiae for SCTGGLVSVRGV .
0.666

----------
test system: Saccharomyces cerevisiae; assay: protein stability index of tFT-peptide fusion in deletion strain of DAS1 (PSI (0-1 scale)); higher = more stable (slower turnover)
value_kind: protein stability index
Respond using a number only.

Worked cases, answers included:
LKILRQKMNHGN; 0.672
VRGAVGGWILVG; 0.638
CTSCGYKFRTNR; 0.692
RLIQPLPVQFTN; 0.723
PSLAASFWRVVS; 0.641
CTSCGYKFRTNY; 0.742
VRGAYGGWRLVG; 0.664
LKIWRQKMNHQN; 0.687
LVSYLSCVACIN; 0.252
MDKRNHLIKLLN; 0.702

Given KKHWKGQKQKIN , respond with its protein stability index.
0.594

Given LKILQQKMNHQN , respond with its protein stability index.
0.676

Given VRGAVVGWRLVG , respond with its protein stability index.
0.66

----------
system: Saccharomyces cerevisiae; assay: protein stability index of tFT-peptide fusion (C-terminal peptide) (PSI (0-1 scale)); higher = more stable (slower turnover); details: genetic background: wild type; temperature: 30 C
List of protein stability index values.

Worked cases, answers included:
LLLHFMFSIFWF; 0.378
ATQVGGPTHSHP; 0.702
VFLSCFFVSWVV; 0.327
AVTSLGGGIILN; 0.659
FPSPPHALPTFP; 0.669
INGICDPQANSR; 0.71

Given PPPLLCPSSAPP , respond with its protein stability index.
0.783

Given GSVMGVGLEKKI , respond with its protein stability index.
0.732

Given NSSEIGQNADTA , respond with its protein stability index.
0.672

Given LPQVKLGRIYTY , respond with its protein stability index.
0.683

Given PRPPLPHQRPRS , respond with its protein stability index.
0.746

Given DRHWLELVGLWS , respond with its protein stability index.
0.75

----------
test system: Saccharomyces cerevisiae; assay: protein stability index of tFT-peptide fusion (C-terminal peptide) (PSI (0-1 scale)); higher = more stable (slower turnover); details: genetic background: das1 deletion; temperature: 30 C
value_kind: protein stability index
Respond using a number only.

Worked cases, answers included:
TLKKIFSKRSIS [YCL049C C-terminal 12 aa]; 0.722
LSRVGELYLSTD [SEC7 C-terminal 12 aa]; 0.683
VRKVAQWLQQLT [FSH2 C-terminal 12 aa]; 0.684

Given APRKEILACSDL [YOR392W C-terminal 12 aa] , respond with its protein stability index.
0.718

Given FTFGTPIFLQLL [YFR010W-A C-terminal 12 aa] , respond with its protein stability index.
0.653

Given EKWASQFGSSGS [SAP1 C-terminal 12 aa] , respond with its protein stability index.
0.702

Given FSFSIFFFFCLA [YFR035C C-terminal 12 aa] , respond with its protein stability index.
0.291

Given RGSEHYTKRKKI [UBS1 C-terminal 12 aa] , respond with its protein stability index.
0.687

Given RIELSKYYNTNL [YPD1 C-terminal 12 aa] , respond with its protein stability index.
0.699

Given KPEFVDIINSRN [TPI1 C-terminal 12 aa] , respond with its protein stability index.
0.715

Given IDKFLDHIGKSQ [FBP1 C-terminal 12 aa] , respond with its protein stability index.
0.698

Given IAKRFAKALGRS [ARN2 C-terminal 12 aa] , respond with its protein stability index.
0.711

Given LRRFIICQLHLI [YBR027C C-terminal 12 aa] , respond with its protein stability index.
0.523

----------
system: Saccharomyces cerevisiae; assay: protein stability index of tFT-peptide fusion (C-terminal peptide) (PSI (0-1 scale)); higher = more stable (slower turnover); conditions: genetic background: wild type; temperature: 30 C
List of protein stability index values.
Respond using a number only.

Worked cases, answers included:
RLIAVAGVVVVA; 0.477
KKPVNINNKLSA; 0.647
GGMMRGHRHRCW; 0.812
CPPPPPPPPSRC; 0.704
LVLFYLWSSVWA; 0.382

Given PRAPQNEHQTKG , respond with its protein stability index.
0.667

Given PRNPLFSPPLPD , respond with its protein stability index.
0.752

Given LCLGFDGAFPLF , respond with its protein stability index.
0.725

----------
test system: Saccharomyces cerevisiae; assay: protein stability index of tFT-peptide fusion (C-terminal peptide) (PSI (0-1 scale)); higher = more stable (slower turnover); details: genetic background: wild type; temperature: 30 C
List of protein stability index values.
Respond using a number only.

PSALGYFRWAVG; 0.68

Given VWGGYGQFYGWK , respond with its protein stability index.
0.606

Given LNTTKTFCSPCL , respond with its protein stability index.
0.692

Given VGVLLGPVWFSV , respond with its protein stability index.
0.684

Given LGFFGGGRWAGG , respond with its protein stability index.
0.717

Given LLPLLYKWLGLR , respond with its protein stability index.
0.681

Given DETIAALYTMTD , respond with its protein stability index.
0.615

Given SSFPAGGWLFFL , respond with its protein stability index.
0.682

Given AFSGMMSVFREW , respond with its protein stability index.
0.695
